Data origin: ChEMBL document CHEMBL1201862

Test system: HOP-62
Assay: NCI tumour cell line growth inhibition, 48 h
Active and inactive are the calls of the source. Rule as the data show it: active = GI50 up to about 1.1 µM and inactive = higher.
Some compounds, each annotated with its measured GI50.

Below are worked cases with known answers.
compound_string=OCC1=C[C@@](COCc2ccccc2)(OCc2ccccc2)[C@@H](OCc2ccccc2)[C@@H]1OCc1ccccc1 data_value="24.2 µM (inactive)"
compound_string=COc1ccc(Nc2nc3ccccc3nc2C(=O)O)cc1OC data_value="34.4 µM (inactive)"
compound_string=CC(=O)NNc1nc(C)c(C(=O)NNC(=O)C(=O)Nc2ccc(C)c(C)c2)s1 data_value="> 100 µM (inactive)"

Data point: COC(=O)[C@]12C3=C(O)C(=O)C[C@H]1OC[C@H]2C=CC3 ; GI50 = > 100 µM (inactive)

Data point: CC(=O)Oc1ccc(Nn2c3ccccc3c3ccccc32)c(C)c1 ; GI50 = 36.1 µM (inactive)
